Experiment: Toxicity liver stage against HepG2, at 10uM
Assay type: cell-based
Parameters: test concentration 10 uM, cell line HepG2-A16-CD81EGFP
Conditions: human, HepG2-A16-CD81EGFP cells; read-out: INHIBITION
observed.property: cytotoxicity at 10 µM (%)
Write the answer as a number in %, unit excluded.

These solved cases illustrate the format of a correct answer.
* CC(NC1(CNC(=O)Cn2cccn2)CCOCC1)c1ccccc1 (centres undefined) | -3.07
* Cc1cccc(CN2C[C@@H]3COC[C@H](NS(C)(=O)=O)[C@@H]3C2)n1 | -2.6
* CCC(C)N(C)S(=O)(=O)c1ccc(CCNC(C)=O)s1 (centres undefined) | -3.45

Documented cytotoxicity at 10 µM of COCCN1CCCC2(CCN(c3cc(C)c(C#N)c(C)n3)C2)C1=O (centres undefined) : 2.7

Documented cytotoxicity at 10 µM of `COc1ccc2c(CN3CCN(Cc4cccc(F)c4)CC3)n[nH]c2c1` : -1.86

Documented cytotoxicity at 10 µM of CC(=O)N1CCOC(Cc2cccc(C(F)(F)F)c2)C1 (centres undefined) : -6.64

Documented cytotoxicity at 10 µM of CN(Cc1noc(C2CC2)n1)C1CCN(Cc2ccncc2)C1 (centres undefined) : -10.6

Documented cytotoxicity at 10 µM of `Cc1cnc2cc(C3CCN(C(=O)c4ccncc4)CC3)[nH]c2n1` : -22.1

Documented cytotoxicity at 10 µM of OC(CN1CCCc2cc(OC(F)F)ccc21)Cn1cccn1 (centres undefined) : 6.85

Documented cytotoxicity at 10 µM of `CC(C)NC(=O)[C@H]1CCS(=O)(=O)[C@@H]2CN(c3ncc(F)cn3)C[C@H]12` : -136

Documented cytotoxicity at 10 µM of CC(C)N(CCNC(=O)N1CCCC(N(C)C)C1)C1CC1 (centres undefined) : -0.211

* * *

Test: Toxicity liver stage against HepG2, at 10uM
Assay type: cell-based
Design: test concentration 10 uM, cell line HepG2-A16-CD81EGFP
Settings: human, HepG2-A16-CD81EGFP cells; read-out: INHIBITION
observed.property: cytotoxicity at 10 µM (%)
Write the answer as a number in %, unit excluded.

These solved cases illustrate the format of a correct answer.
* CCc1noc(CCC(=O)N[C@@H]2CC[C@@H](n3ccnc3C)[C@@H]2O)n1 | -20.5
* COCCN1CCC(N(Cc2noc(C3CC3)n2)C(C)=O)C1 (stereo unspecified) | -12.4
* CC(C)CN1CCC(NC(=O)c2ccc(F)cc2I)CC1 | -33.9
* CC1CCN(CC(O)CN2CCn3c(nnc3C3CC3)C2)CC1 (stereo unspecified) | -2.22

Documented cytotoxicity at 10 µM of COc1ccccc1C1CNC(=O)c2nc(-c3nccn3C)[nH]c2C1 (stereo unspecified) : 4.2

Documented cytotoxicity at 10 µM of `CC(C)(C)C(=O)NC[C@H]1Cn2c(-c3ccccc3)cnc2CO1` : -3.69

* * *

Parameter cytotoxicity at 10 µM: see the listing below.
Assay: Toxicity liver stage against HepG2, at 10uM
Format: cell-based
Parameters: test concentration 10 uM, cell line HepG2-A16-CD81EGFP
Conditions: human, HepG2-A16-CD81EGFP cells; read-out: INHIBITION
Write the answer as a number in %, unit excluded.

Documented cytotoxicity at 10 µM of `CCn1nc2c(cc1=O)CN(Cc1nc(-c3cccnc3)no1)CC2` : -5.86

Documented cytotoxicity at 10 µM of `COc1ccc(CN2C[C@@H]3CN(Cc4ccncc4)C[C@@H]3C2=O)cc1` : -3.86

Documented cytotoxicity at 10 µM of O=C(NCc1nncn1C1CCCCC1)C1CNCCO1 (stereo unspecified) : -2.08

Documented cytotoxicity at 10 µM of `CNS(=O)(=O)CC(=O)N1CCCc2cc(Br)ccc21` : -12.5

Documented cytotoxicity at 10 µM of `Cc1nc(-c2ccc(CC(=O)N3CCNC(=O)C3)cc2)cs1` : 6.14

Documented cytotoxicity at 10 µM of `C=C(C)Cn1ccc2cc(OC)c(F)cc2c1=O` : 3.09

* * *

Parameter cytotoxicity at 10 µM: see the listing below.
Assay: Toxicity liver stage against HepG2, at 10uM
Format: cell-based
Design: test concentration 10 uM, cell line HepG2-A16-CD81EGFP
Settings: human, HepG2-A16-CD81EGFP cells; read-out: INHIBITION
Write the answer as a number in %, unit excluded.

These solved cases illustrate the format of a correct answer.
* CC(=O)N1CCCCC[C@@H]2[C@@H]1[C@H](c1cccc(F)c1)CN2CCC(N)=O | -1.08
* O=C(c1cccc(NCCOc2ccc(F)cc2)c1)N1CCOCC1 | 7.43
* COc1cccc(C(=O)N2C[C@@H](CN(C)CCO)[C@@H](CO)C2)c1C | -4.17

Documented cytotoxicity at 10 µM of Cc1nn(Cc2ccc(C(=O)NC3CCS(=O)(=O)C3)cc2)c(C)c1Br (stereo not drawn) : -3.71

Documented cytotoxicity at 10 µM of `CN1CCN(c2cc(NC(=O)c3cnccn3)ncn2)CC1` : -1.23

Documented cytotoxicity at 10 µM of Cc1cc(C)nc(NC2CC(=O)N(C)C2)n1 (stereo not drawn) : 8.61

Documented cytotoxicity at 10 µM of `CCc1nnc(CNC2CCN(c3ncnc4c(C)csc34)CC2)s1` : 10.5

* * *

Parameter cytotoxicity at 10 µM: see the listing below.
Experiment: Toxicity liver stage against HepG2, at 10uM
Assay type: cell-based
Parameters: test concentration 10 uM, cell line HepG2-A16-CD81EGFP
Conditions: human, HepG2-A16-CD81EGFP cells; read-out: INHIBITION
Write the answer as a number in %, unit excluded.

These solved cases illustrate the format of a correct answer.
* CCC(C)NC(=O)c1cc(Br)c2c(c1)OCCO2 (stereo not drawn) | -14.3
* CS(=O)(=O)c1cn[nH]c1C1CCCN1C(=O)c1cccnc1 (stereo not drawn) | -14.6
* Cc1nnc(N2CCC(NS(C)(=O)=O)CC2)c(C#N)c1C | -5.13
* Cc1ccc(C(=O)NCCS(=O)(=O)Cc2ccccc2)c(=O)[nH]1 | -5.96
* CCCN1CCCN(C(=O)Nc2ccc3c(c2)OCO3)CC1 | -4.92

Documented cytotoxicity at 10 µM of CC(Cc1ccccc1F)NC(=O)CCC1=NC(=C2N=CN=N2)NO1 (stereo not drawn) : 7.69

Documented cytotoxicity at 10 µM of `COCCNC(=O)C[C@@H]1COC[C@H]2CN(C(=O)c3cnccn3)C[C@@H]12` : -12.2

Documented cytotoxicity at 10 µM of CC(C(=O)Nc1ccc(C#N)cc1)N1CCc2ccccc21 (stereo not drawn) : -1.5

* * *

Test: Toxicity liver stage against HepG2, at 10uM
Assay type: cell-based
Parameters: test concentration 10 uM, cell line HepG2-A16-CD81EGFP
Settings: human, HepG2-A16-CD81EGFP cells; read-out: INHIBITION
observed.property: cytotoxicity at 10 µM
Express the reported value numerically, then name its unit.

These solved cases illustrate the format of a correct answer.
- O=C(CCN1CCc2[nH]nc(C(F)(F)F)c2C1)Nc1ccccc1: -1.2%
- O=C(N[C@@H]1CCCNC1)C1(Oc2ccc(Cl)cc2)CCNCC1: -4.73%
- CN1CCCCC1c1cncc(Cl)n1 (configuration not stated): 0.995%
- COCC1c2nnn(CC3CC3)c2CCN1C(=O)N1CCCC1 (configuration not stated): -131%

Documented cytotoxicity at 10 µM of `CN(C(=O)CN1CCC(NC(=O)c2cccs2)CC1)c1ccccc1` : -8.55%

Documented cytotoxicity at 10 µM of `Cc1ccc2nc3n(c2c1)[C@@H](CNC(=O)c1ccncc1)COC3` : -3.61%

Documented cytotoxicity at 10 µM of `Cc1ccc(CNC(=O)NCc2nccn2C)c(OC(C)(C)C)c1` : 2.66%

* * *

Assay: Toxicity liver stage against HepG2, at 10uM
Format: cell-based
Design: test concentration 10 uM, cell line HepG2-A16-CD81EGFP
Settings: human, HepG2-A16-CD81EGFP cells; read-out: INHIBITION
Parameter cytotoxicity at 10 µM: see the listing below.

These solved cases illustrate the format of a correct answer.
• c1cc(-c2nccn2CCc2nc3c(s2)CCC3)ccn1 = 6.15%
• COc1ccc(Cl)cc1C(=O)N1CCOC2(CNCCOC2)C1 (centres undefined) = -9.73%
• Cc1ccc(CC(NC(=O)CN(C)C2CC2)c2ccccn2)cc1 (centres undefined) = 5.33%

Documented cytotoxicity at 10 µM of c1ccc(-c2nc(CN3CCCC3Cn3cncn3)co2)cc1 (centres undefined) : -1.99%

Documented cytotoxicity at 10 µM of CCN(CC)S(=O)(=O)NC(C)C(=O)N(C)C (centres undefined) : 9.55%

* * *

Assay: Toxicity liver stage against HepG2, at 10uM
Format: cell-based
Design: test concentration 10 uM, cell line HepG2-A16-CD81EGFP
Settings: human, HepG2-A16-CD81EGFP cells; read-out: INHIBITION
Parameter cytotoxicity at 10 µM: see the listing below.
Write the answer as a number in %, unit excluded.

These solved cases illustrate the format of a correct answer.
• CCNC(=O)NC[C@H]1C[C@@H]2CCN1C[C@@H]2c1cc(-c2cccs2)nn1C = -5.72
• Cc1ncsc1CN1CCOC(C)(C(N)=O)C1 (stereo unspecified) = 0.267

Documented cytotoxicity at 10 µM of `Cc1ccccc1CN1C[C@@H]2COC[C@]2(CNC(=O)C2CCC2)C1` : -110

Documented cytotoxicity at 10 µM of `Cc1cc2c(=O)n(CCSc3ncn[nH]3)cnc2s1` : 8.87

Documented cytotoxicity at 10 µM of CC(NC(=O)N(C)Cc1ccsc1)c1nncn1C (stereo unspecified) : -4.02

Documented cytotoxicity at 10 µM of O=C(NC1CC1)N1CCCC2(CCNC2=O)C1 (stereo unspecified) : 3
